- Tested on: TO-3-N3 (biotin conjugate)
- Assay Comment: pull-down binding Z-score (relative to library population); higher = stronger binding
- Condition Context: RNA library: Library-2
Endpoint Label: pull-down binding Z-score
Give the figure by itself; no unit, no explanation.

For record GGCCAGGUUUCAAGGCC [IAV_invivo_PA_3_Motif_22+IAV_invivo_PA_3_Motif_22] the listed pull-down binding Z-score is -0.64

For record UGAGACCUGGUGCAGAACGGGAAGGCGA [hsa-mir-551b] the listed pull-down binding Z-score is 0.308

For record GGGGUGGCUGCGGGCCUUCUGAAGGUCUCCC [hsa-mir-662] the listed pull-down binding Z-score is 0.427

For record CAGACAACACAUUUGUGUCUG the listed pull-down binding Z-score is -1.07

For record GAAGCUGUAAGGUGUUCAGAGGAGCUUU [hsa-mir-30e] the listed pull-down binding Z-score is 0.57

For record CUUUUGGAAAAUAGAAAAG [hsa-mir-3184] the listed pull-down binding Z-score is -0.24

For record CCCGGAUACCUCAGAAAUUCGG [hsa-mir-760] the listed pull-down binding Z-score is -0.07

For record AUGUGAUUGCUGUCCCAAACUCAUGU [hsa-mir-135b] the listed pull-down binding Z-score is -0.305

For record UGUCCGUGAUCCACAGACA the listed pull-down binding Z-score is -0.695

For record GGGACACAUUUGAGCCAAAUGUCCC [hsa-mir-610] the listed pull-down binding Z-score is -0.35

For record UCACACUCAAAGGCGGUGCACCAACAAAGGUUACUUUUGGUGAUGACACUGUGAUAGAAGUGCAAGGUUACAAGAGUGUGAAUAUCACUUUUGAACUUGAUGA [DMSMaPseq_invitro_SARS-CoV-2_Multi_10_ComplexLevel_1] the listed pull-down binding Z-score is 0.0984

For record UGUGAUUUUAAUAGCUUCUUAGGAGAAUGACA [SHAPE_invivo_SARS-CoV-2_Motif_573] the listed pull-down binding Z-score is -0.571

For record UGGCAUUAAUGCUUCAGUUGUAAACAUUCAAAAAGAAAUUGACCGCCUCAAUGAGGUUGCCA the listed pull-down binding Z-score is -0.964

For record GUCGCUACAGGAUUGGCAACUAUAAAUUAAACACAGACCAUUCCAGUAGCAGUGAC [SHAPE_invitro_SARS-CoV-2_Motif_494] the listed pull-down binding Z-score is 0.00722

For record GUGCUGGCAGUGGCCACGUAA [hsa-mir-4276] the listed pull-down binding Z-score is -0.0231

For record UGGCAUGGAAGUCA [DMSMaPseq_invitro_SARS-CoV-2_Motif_525] the listed pull-down binding Z-score is 0.0287

For record GCACCAUUAUUAUCAGCUGGUAUUUUUGGUGC the listed pull-down binding Z-score is -0.619

For record UGAGUACUGUAGGCACGGCACUUGUGAAAGAUCAGAAGCUGGUGUUUGUGUAUCUACUAGUGGUAGAUGGGUACUUA [DMSMaPseq_invitro_SARS-CoV-2_Multi_29_ComplexLevel_1] the listed pull-down binding Z-score is -0.254

For record UUAUGUUUCUGAUCCGAAUAUAA [hsa-mir-208b] the listed pull-down binding Z-score is -0.229

----------
- Test system: G-clamp-N3 (biotin conjugate)
- Assay Comment: pull-down binding Z-score (relative to library population); higher = stronger binding
- Condition Context: RNA library: Library-1 (pre-miRNA loops + repeats)
Give measured pull-down binding Z-score for each item. Keep answers brief.
Give the figure by itself; no unit, no explanation.

For record UAUUUUGUUAUUCUGGUCACAGAAUGACCUAGUA [hsa-mir-630] the listed pull-down binding Z-score is -1.22

For record GGGUGGGCGGGGGCGGCCGGUGGGAACCCCGCCCCGCCCCGCGCCCGCACUCACCC [hsa-mir-7108] the listed pull-down binding Z-score is 0.489

For record UAAUAUGUAAUAUAAAUGUAUUG [hsa-mir-450a-2] the listed pull-down binding Z-score is -0.938

For record CACCAAAGGGUUAAGGGUUUGCUCUGGAG [hsa-mir-4653] the listed pull-down binding Z-score is -0.264

For record GGCAGGGGGAGCUGCAGGGCUAUGGGAGGGGCCCCAGCGUCUGA [hsa-mir-1233-2_1233-1] the listed pull-down binding Z-score is 2.96

For record CUUUUUGCCACCUGAGCACAGUCAGCAGUCAGCAUAAAA [hsa-mir-4275] the listed pull-down binding Z-score is 0.39

For record GAGAUGUGAUCCUGCCACAUCUC [hsa-mir-1304] the listed pull-down binding Z-score is 0.421

For record UGUGCCUUGCCUUUCCUUUGGCACA [hsa-mir-4438] the listed pull-down binding Z-score is 0.155

For record CAGACUGUCUUCCCAAAUAGCCUG [hsa-mir-4772] the listed pull-down binding Z-score is -1.42

For record GGGCCUGGGUUUCUGAACAC [hsa-mir-196a-1] the listed pull-down binding Z-score is 0.486

For record AGAAGGCCUAUGGUGAUUUGCAUUCUU [hsa-mir-6875] the listed pull-down binding Z-score is 0.997

For record GCCGCGGAAGAAGGGGAAGCGC [hsa-mir-6720] the listed pull-down binding Z-score is 2.21

For record GCCCGCUGUGUUCACUCGGGC [hsa-mir-602] the listed pull-down binding Z-score is 0.773

For record GAUUGCUAAUAGUACCAAUC [hsa-mir-34c] the listed pull-down binding Z-score is -0.0934

For record UUGGUGACAGCAGCAGUAGAGUUGCCAG [hsa-mir-6501] the listed pull-down binding Z-score is 0.0434

For record CCACUACCGGUGA [hsa-mir-4658] the listed pull-down binding Z-score is -0.573

For record CACUGAUUCAGUAAAAUACUCAGUG [hsa-mir-891a] the listed pull-down binding Z-score is -0.252

For record GCCCUGGGCCGGGCGAUGUCCGCUUGGGGG [hsa-mir-6090] the listed pull-down binding Z-score is -0.223

For record CGCCAGCUCGCUGACAGCACGACUCAGGGCG [hsa-mir-658] the listed pull-down binding Z-score is 0.902

For record CCCACCUCCAGCAUUGGG [hsa-mir-1267] the listed pull-down binding Z-score is -0.68

For record UCUUCCCAGAAUUGGGAAAA [hsa-mir-320c-2] the listed pull-down binding Z-score is -0.574

For record GCAGGUAGCUUUUUGAGAUCUACUGC [hsa-mir-106a] the listed pull-down binding Z-score is 0.281

For record CUUGCAGAAUUAAUGGAAUGCUG [hsa-mir-676] the listed pull-down binding Z-score is -1.73

----------
- System: TO-3-N3 (biotin conjugate)
- Assay Comment: pull-down binding Z-score (relative to library population); higher = stronger binding
- Condition Context: RNA library: Library-2
Endpoint Label: pull-down binding Z-score
Give the figure by itself; no unit, no explanation.

For record CAGUACAAUUCUGUGAUGCCAUGCGAAAUGCUGGUAUUGUUGGUGUACUG the listed pull-down binding Z-score is -0.432

For record GCUGACACUACUGAUGCUGUCCGUGAUCCACAGACACUUGAGAUUCUUGACAUUACACCAUGUUCUUUUGGUGGUGUCAGU [SHAPE_invivo_SARS-CoV-2_Multi_58_ComplexLevel_1] the listed pull-down binding Z-score is -0.0653

For record UGAACAGUGAUUGGUUUCCGCUUUGUUCA [hsa-mir-27b] the listed pull-down binding Z-score is 0.138

For record ACAGAAUGCUGU the listed pull-down binding Z-score is -0.821

For record UGUUUGUGUCUAAACUAUCAAACG [hsa-mir-122] the listed pull-down binding Z-score is -0.183

For record GGUUCUGGGGUGUAGACGCUGCUGGCCAGCC [hsa-mir-4707] the listed pull-down binding Z-score is 0.287

For record GGGGCUGGUUGUCUA [hsa-mir-6080] the listed pull-down binding Z-score is 0.297

For record UUGUAAUAGUGUAGAAUGUUGGUUAAC [hsa-mir-591] the listed pull-down binding Z-score is -0.133

For record CAGUGAGCUAUGAUCAUGUCCCUG [hsa-mir-1254-2] the listed pull-down binding Z-score is 0.0243

For record UGUGCCCCGUACCGGACAGG [hsa-mir-7160] the listed pull-down binding Z-score is -0.0418

----------
- Tested on: TO-3-N3-2 (biotin conjugate)
- Assay Comment: pull-down binding Z-score (relative to library population); higher = stronger binding
- Condition Context: RNA library: Library-2
Endpoint Label: pull-down binding Z-score
Give the figure by itself; no unit, no explanation.

For record AACUACUAUUCAAACAAUUGUUGAGGUUCAACCUCAAUUAGAGAUGGAACUUACACCAGUUGUUCAGACUAUUGAAGUGAAUAGUUUUAGUGGUU the listed pull-down binding Z-score is -0.609

For record UCCCAUUUCCACAUGGAGAGUGGAGCCCAGA [hsa-mir-3123] the listed pull-down binding Z-score is 0.0927

For record GCAGCUAGUAUUCUCACUCCAGUUGC [hsa-mir-153-1] the listed pull-down binding Z-score is -0.655

For record GGUUUUUACCAUUAAAACC [hsa-mir-548aw] the listed pull-down binding Z-score is -0.448

For record CUUCUGCUGCUCUUCAACCUGAAGAAGAGCAAGAAGAAG the listed pull-down binding Z-score is -0.22

For record ACACUUCCUAUAUGUAUCCACAUAUAUAUAGU [hsa-mir-568] the listed pull-down binding Z-score is -0.0673

For record UAUCCAAACGCAAGCUUCGAUAAUUUUAAGUUUGUAUGUGAUA [DMSMaPseq_invitro_SARS-CoV-2_Motif_115] the listed pull-down binding Z-score is 0.145

For record CAGUGGCAGAUUUUCCCAUAG [hsa-mir-4727] the listed pull-down binding Z-score is -0.261

For record UGGAGUUUUUUUUUCCUCCUG [hsa-mir-4329] the listed pull-down binding Z-score is 0.465

For record CUGGGAGGUGUGAUCCCGUGCUUCCUGG [hsa-mir-3689b] the listed pull-down binding Z-score is -0.408

Taken from the supplement of paper PMC11865577.
